Would you kindly list ED50 for each of these compounds?
System: Galleria mellonella
Experiment: Effective dose that causes 50 % inhibition of Galleria mellonella (GAL) was determined.
Type: functional
The reply should consist of the numeric value with the unit placed after it.

[[record]]
compound = "CCOC(=O)NCCOc1ccc(C[C@@H]2CCCC[C@@H]2O)cc1"
result = "0.8 µg/kg"


Dear colleague, could you send me ED50 for each of the items below? Thanks.
1. CCOC(=O)/C=C(C)/C=C/CC(C)CCCC(C)C (stereo not given) [HYDROPRENE]
2. CCOC(=O)NCCOc1ccc(CC2CCCCC2=O)cc1 (stereo not given)
3. CCOC(=O)NCCOc1ccc(C[C@H]2CCCC[C@@H]2O)cc1
4. CCOC(=O)NCCOc1ccc(CC2CCCCC23OCCO3)cc1 (stereo not given)

10 µg/kg
0.2 µg/kg
0.8 µg/kg
0.8 µg/kg

Where these numbers come from: ChEMBL document CHEMBL1126464
